system-under-test: T1, TNFR1 (Homo sapiens, UniProt P19438)
T1 chain: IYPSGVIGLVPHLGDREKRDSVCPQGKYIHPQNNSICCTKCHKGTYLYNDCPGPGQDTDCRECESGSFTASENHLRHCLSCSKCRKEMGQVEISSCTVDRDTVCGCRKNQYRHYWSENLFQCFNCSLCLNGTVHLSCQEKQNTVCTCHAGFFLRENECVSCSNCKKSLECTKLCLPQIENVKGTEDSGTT
test-description: yeast display SC50
Define the label as Yes when apparent Kd (screen) is strictly less than 0.7 nM and as No in all remaining cases.

Problem: For the binder A23F (designed binder) MTLQELLREEALRRAEAEAFRYFLELLAEKFPEQKEYLLDLAEEIESQIRSLSGVDVEDVRKFLDKEWAWVKELLAEHPAELAEVEAARAARLAELRAEVEAKVAA , is apparent Kd (screen) under 0.7 nM? No

L52A (designed binder) MTLQELLREEALRRAEAEAFRYALELLAEKFPEQKEYLLDLAEEIESQIRSASGVDVEDVRKFLDKEWAWVKELLAEHPAELAEVEAARAARLAELRAEVEAKVAA ? Yes

V104C (designed binder) MTLQELLREEALRRAEAEAFRYALELLAEKFPEQKEYLLDLAEEIESQIRSLSGVDVEDVRKFLDKEWAWVKELLAEHPAELAEVEAARAARLAELRAEVEAKCAA ? Yes

R8V (designed binder) MTLQELLVEEALRRAEAEAFRYALELLAEKFPEQKEYLLDLAEEIESQIRSLSGVDVEDVRKFLDKEWAWVKELLAEHPAELAEVEAARAARLAELRAEVEAKVAA ? Yes

L12F (designed binder) MTLQELLREEAFRRAEAEAFRYALELLAEKFPEQKEYLLDLAEEIESQIRSLSGVDVEDVRKFLDKEWAWVKELLAEHPAELAEVEAARAARLAELRAEVEAKVAA ? Yes

L24Q (designed binder) MTLQELLREEALRRAEAEAFRYAQELLAEKFPEQKEYLLDLAEEIESQIRSLSGVDVEDVRKFLDKEWAWVKELLAEHPAELAEVEAARAARLAELRAEVEAKVAA ? No

Ref: paper PMC12416549
